Target Of Assay: T1, human TIM-3 extracellular domain protein with hFc tag (hTIM-3-hFc) (human, UniProt Q8TDQ0 22-200)
T1 construct: not shown: human IgG Fc fragment (hFc) of the pCpC vector
T1 sequence: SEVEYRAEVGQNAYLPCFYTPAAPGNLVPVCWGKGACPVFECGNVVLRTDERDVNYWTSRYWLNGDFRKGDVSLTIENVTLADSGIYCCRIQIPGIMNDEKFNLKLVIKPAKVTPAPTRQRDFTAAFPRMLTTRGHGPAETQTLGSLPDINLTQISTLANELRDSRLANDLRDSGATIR
Run Description: ELISA, coated human TIM-3 ECD protein, 0.0007 nM antibody

Binder	OD450
34B6D8 fully human TIM-3 antibody (human IgG4, kappa) (antibody, V domains shown) VH: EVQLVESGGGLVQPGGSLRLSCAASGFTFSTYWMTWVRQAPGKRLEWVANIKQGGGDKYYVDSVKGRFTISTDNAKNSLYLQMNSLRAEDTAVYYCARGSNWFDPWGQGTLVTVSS VL: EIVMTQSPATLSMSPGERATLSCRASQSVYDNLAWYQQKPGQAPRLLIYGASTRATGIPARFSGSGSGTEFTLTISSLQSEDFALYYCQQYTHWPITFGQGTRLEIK	0.11
134H3G6 fully human TIM-3 antibody (human IgG4, kappa) (antibody, V domains shown) VH: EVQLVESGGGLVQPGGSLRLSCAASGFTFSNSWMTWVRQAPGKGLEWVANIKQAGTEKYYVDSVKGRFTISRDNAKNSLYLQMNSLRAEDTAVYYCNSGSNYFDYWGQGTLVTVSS VL: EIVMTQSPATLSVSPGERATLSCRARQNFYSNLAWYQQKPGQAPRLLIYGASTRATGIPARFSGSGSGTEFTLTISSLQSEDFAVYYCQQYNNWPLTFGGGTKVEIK	0.1

// provenance: patent US20220033501A1
